Test system: L1210 leukemia ip in BDF1 mice, survival T/C
Experiment: NCI In Vivo Anticancer Drug Screen. Data for tumor model L1210 Leukemia (intraperitoneal) in B6D2F1 (BDF1) mice
Details: endpoint: mean survival time; dose: 400.0 mg/kg/injection; schedule: Q04DX003 (ip); vehicle: Klucel (hydroxypropylcellulose) (HPC); higher = longer survival
Toxic doses and inconclusive results are not listed.
reported.property: T/C

# example entries with known answers
CCOC(=O)c1cc2cc([N+](=O)[O-])ccc2oc1=O : 94 % of control
C/C(=N/O)c1ccncc1 : 95 % of control
Cc1nc(C)c([N+](=O)[O-])s1 : 100 % of control
COc1ccc(NC(=O)c2ccccc2Cl)cc1 : 96 % of control
O=C(CC(O)(C(F)(F)F)C(F)(F)F)c1cccc2ccccc12 : 90 % of control
O=C1c2ccc([N+](=O)[O-])cc2-n2cccc21 : 98 % of control
CCc1ccccc1NC(=O)Sc1ccccc1C : 100 % of control
Cc1c(N=CN(C)C)c(=O)n(-c2ccccc2)n1C : 107 % of control

List the reported T/C of each compound below.
1. Nc1ccc(NC(=O)c2ccc3ccccc3c2O)c(Cl)c1
2. COc1cccc(/C=c2\[nH]c(=O)/c(=C/c3cccc(OC)c3OC)[nH]c2=O)c1OC
3. CC(C)(C)CCCC1C(=O)N(c2ccccc2)N(c2ccccc2)C1=O

Out:
94 % of control
91 % of control
101 % of control

Entry CC1(C)C2CCC1(C)C(NCc1cc(Br)cc(Br)c1O)C2 (configuration not stated) — recorded T/C = 98 % of control
